Below: a set of entries, each annotated with reported cytotoxicity.
# Assay overview: cytotoxicity in HPDE-C7 cells, cell-based, fluorescence, HTS (AID 430);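 also: cells exposed to compound for 48 hours before viability readout; 0% = vehicle and 100% = reference cytotoxic drug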
# Assay context: HPDE-C7 pancreatic duct cells viability, at 10 µM, stronger effect = higher value
Among all 63,000 compounds or so, about 1,100 (1.7%) were called active. The full list was thinned out, with actives kept by preference. Potency and affinity values are given separately.

| Compound | cytotoxicity (%) |
| --- | --- |
| O=C(CSc1nnc(C2COc3ccccc3O2)o1)N1CCCc2ccccc21 (stereo unspecified) | -5.7 |
| O=C(Nc1ccc2c(c1)OCO2)C(c1ccccc1)N1CCCCC1 (stereo unspecified) | -14 |
| Cc1ccc(C)c(Cn2c(=O)n(CCCC(=O)NCc3ccco3)c(=O)c3ccccc32)c1 | 60.2 |
| O=C(Nc1ccc(N2CCOCC2)c(Cl)c1)c1ccco1 | -5.7 |
| Cc1ccccc1Cn1c(=O)n(CCCC(=O)NCc2ccco2)c(=O)c2ccccc21 | -24.1 |
| O=C(c1ccco1)N1CCN(Cc2ccc(Cl)cc2)CC1 | -3.7 |
| CCc1cccc(Nc2cc(C)nc3ncnn23)c1 | -0.8 |
| O=C(Nc1ccc(N2CCN(C(=O)c3ccccc3)CC2)c(Cl)c1)c1ccco1 | -7.6 |
| CCn1c(=O)cc(OCC(=O)NCc2ccco2)c2ccccc21 | 5.8 |
| O=C1c2ccccc2C(=O)N1CCSc1nncs1 | -8.3 |
| CCOC(=O)C1=C(CSc2nc3c(cc2C#N)CN(C)CC3)OC(N)=C(C#N)C1c1ccccc1 (stereo unspecified) | 3.4 |

---

Here, each record is paired with measured cytotoxicity data.
# Assay overview: cytotoxicity in HPDE-C7 cells, cell-based, fluorescence, HTS (AID 430);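 also: cells exposed to compound for 48 hours before viability readout; 0% = vehicle and 100% = reference cytotoxic drug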
# Assay context: HPDE-C7 pancreatic duct cells viability, at 10 µM, stronger effect = higher value
The whole screen tested about 63,000 compounds, of which about 1,100 (1.7%) were called active. The list comes from a sample in which actives are over-represented; it also holds close analogues and randomly drawn compounds. Entries with a potency or affinity are not part of this list.

| Compound | cytotoxicity / % |
| --- | --- |
| Clc1ccc(-n2nnnc2Sc2ncnc3sccc23)cc1 | 4.6 |
| CC(NS(=O)(=O)c1ccc(Br)cc1)C(c1cccs1)N1CCN(C)CC1 (stereo unspecified) | -8.4 |
| N#Cc1cn(Cc2cccc(Cl)c2)c2ccccc12 | 56.1 |
| CCOC(=O)Cc1csc(NS(=O)(=O)c2ccc3c4c(cccc24)C(=O)N3CC)n1 | 8.7 |
| CCN1C(=O)c2cccc3c(S(=O)(=O)Nc4ncccc4C)ccc1c23 | 23.7 |
| Cc1nc(N)sc1-c1csc(Nc2ccccc2)n1 | 36.2 |
| Cc1nn(CCO)c2c1C(=O)CCC2 | -9.1 |
| Clc1ccccc1-c1nnn(Cc2ccc(-c3nn[nH]n3)cc2)n1 | -10.8 |
| CC(C)CSc1nc2c(c(=O)[nH]c(=O)n2C)n1CC(O)COc1cccc2ccccc12 (stereo unspecified) | 68.7 |
| COc1ccc(C2C3=C(Nc4ncnn42)c2ccccc2CC3)cc1OC (stereo unspecified) | 32.9 |
| CCC(C)C(NC(=O)C1CCC(C)CC1)C(=O)NC(C(=O)OC)C(C)C (stereo unspecified) | -5.2 |
| O=S(=O)(c1ccccc1)N1CCN(Cc2ccccc2C(F)(F)F)CC1 | -2.9 |
| Cc1nnc(SCC(=O)Nc2ncc(Cc3ccc(F)cc3)s2)n1N | -7.7 |
| CCOC(=O)C1CCCN(C(=O)c2cn(CC)c3ccc(S(=O)(=O)N4CCCC4)cc3c2=O)C1 (stereo unspecified) | -6.2 |
| O=C(Cc1cn2ccsc2n1)Nc1nc2c(s1)CCCC2 | 6.8 |
| COCCOC(=O)C1=C(C)NC(SCC(=O)NC(C)(C)C)=C(C#N)C1c1ccco1 (stereo unspecified) | 10.7 |
| c1csc(-c2nn[nH]n2)c1 | -3.1 |
| COc1ccc(CCNC(=O)CSc2nnnn2Cc2ccc3c(c2)OCO3)cc1OC | -16.4 |
| Cc1ccccc1OCC(O)Cn1c(SC(C)C)nc2c1c(=O)[nH]c(=O)n2C (stereo unspecified) | 0.7 |
| Cc1cc(C(=O)N2CCN(S(C)(=O)=O)CC2)sc1-c1ccccc1 | -3 |
| CCOC(=O)c1[nH]c(C)c(C(=O)NC(C)CC)c1C (stereo unspecified) | 1.4 |
| O=c1c2ccccc2nc(SCc2cc(F)cc3c2OCOC3)n1Cc1ccco1 | -2.2 |
| CC(=O)Nc1ccc(NS(=O)(=O)c2ccc(Cl)c(C(=O)O)c2)cc1 | 0.9 |
| CCCn1c(Sc2nnnn2-c2ccccc2)n[nH]c1=O | -7.4 |
| N#Cc1cn(CC(=O)O)c2ccccc12 | -15.5 |
| C=CCNc1nc(-c2sc(NC(C)=O)nc2C)cs1 | 11.6 |
| NS(=O)(=O)c1ccc(Nc2nc(-c3ccc(O)cc3)cs2)cc1 | -1.2 |
| COc1ccc(OC)c(C2NC(=O)NC(C)=C2C(=O)Nc2ccc(C)cc2C)c1 (stereo unspecified) | -13.3 |
| Cc1ccc(N=c2oc3cc(O)ccc3cc2C(N)=O)cc1 | 3.9 |
| Oc1ccc(Nc2nc(-c3ccc(O)cc3)cs2)cc1 | 78.4 |
| COc1ccc2nc(NC(=O)c3ccc4ncsc4c3)sc2c1 | 0.5 |
| CC(=O)C1=C(C)NC(SCC(=O)c2ccccc2)=C(C#N)C1CC(C)C (stereo unspecified) | 8.5 |
| CC(=O)C1=C(C)NC(SCC(=O)c2ccc(Cl)cc2Cl)=C(C#N)C1c1ccco1 (stereo unspecified) | 40.9 |
| NC(=O)c1cc2ccc(O)cc2oc1=Nc1ccccc1 | 5.3 |
| CC(=O)C1=C(C)NC(SCC(=O)c2ccc(F)cc2)=C(C#N)C1c1ccco1 (stereo unspecified) | 79.8 |
| O=C(Cc1cn2ccsc2n1)Nc1nc2c(s1)CN(Cc1ccccc1)CC2 | -4.7 |
| COc1ccc(C2C(C(=O)NCCN3CCOCC3)c3ccccc3C(=O)N2C)cc1OC (stereo unspecified) | -4.3 |
| Cc1ccc(C(=O)CSC2=C(C#N)C(c3ccco3)CC(=O)N2)c(C)c1 (stereo unspecified) | -3 |
| COC(=O)Nc1ccc(NC(C)=O)cc1 | -16 |
| Cc1cccc(N=c2oc3cc(O)ccc3cc2C(N)=O)c1 | 59.6 |
| CCSc1nc2c(c(=O)[nH]c(=O)n2C)n1CC(O)COc1ccccc1C (stereo unspecified) | -1.3 |
| CCCn1c(C)nc2c(c1=O)c1nc3ccccc3nc1n2-c1ccc2c(c1)OCCO2 | 51.4 |
| N#Cc1cn(Cc2ccccc2)c2ccccc12 | 6.7 |
| c1cncc(Nc2nc(-c3ccncc3)cs2)c1 | -3.1 |
| CCc1ccccc1NC(=O)CN1CCC(NC(=O)COC)CC1 | -16 |
| Cc1ccc(C(=O)Nc2ncc(Cc3ccc(F)cc3)s2)o1 | 57.5 |

---

A collection of compounds and their measured cytotoxicity
# Assay overview: cytotoxicity in HPDE-C7 cells, cell-based, fluorescence, HTS (AID 430);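 also: cells exposed to compound for 48 hours before viability readout; 0% = vehicle and 100% = reference cytotoxic drug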
# Assay context: HPDE-C7 pancreatic duct cells viability, at 10 µM, stronger effect = higher value
Screen size: about 63,000 compounds; about 1,100 (1.7%) were called active. The full list was thinned out, with actives kept by preference. Measured potencies and affinities stand elsewhere.

| Compound | cytotoxicity / % |
| --- | --- |
| N#CC1=C(N)Oc2cc(N)ccc2C1C1CCCCC1 (stereo unspecified) | 22.2 |
| COc1ccc(C2C(C#N)=C(N)Oc3cc(O)ccc32)cc1OC (stereo unspecified) | -6.7 |
| CC(C)c1nnc(NC(=O)CSc2nc3ccccc3s2)s1 | -8.4 |
| CCCCN(CC)S(=O)(=O)c1ccc(C(=O)Nc2nnc(-c3cccs3)o2)cc1 | 49 |
| CC1CCCN(S(=O)(=O)c2ccc(NC(=O)c3cccc(-n4cnnn4)c3)cc2)C1 (stereo unspecified) | 18.2 |
| COc1ccc(-c2noc(CSc3nc4ccccc4c(=O)n3-c3ccccc3)n2)cc1OC | -10.3 |
| CC1CCCN(S(=O)(=O)c2ccc(C(=O)Nc3nnc(-c4ccccc4Cl)o3)cc2)C1 (stereo unspecified) | 60.8 |
| CCCCN(C)S(=O)(=O)c1ccc(C(=O)Nc2nnc(CSC)o2)cc1 | 11.6 |
| O=C(Nc1nc(-c2cccs2)cs1)c1ccc(S(=O)(=O)N2CCCCC2)cc1 | -6.2 |
| Cc1ccccc1-n1c(N)cc(=O)[nH]c1=S | -2.2 |
| Cc1ccc2oc3c(c(=O)c2c1)C(c1ccc(F)cc1)N(CCCN1CCOCC1)C3=O (stereo unspecified) | -11.5 |
| N#CC1=C(N)Oc2cc(N)ccc2C1C1CC=CCC1 (stereo unspecified) | 59.8 |
| Cc1cc(C)n(-c2nnc3n2N=C(c2ccccc2)CS3)n1 | -0.3 |
| Cn1c(N)c(C(=O)COC(=O)c2ccc3c(c2)OCCO3)c(=O)n(C)c1=O | -1.5 |
| CCCCN(C)S(=O)(=O)c1ccc(C(=O)Nc2nnc(-c3cccs3)o2)cc1 | 59.9 |
| CCOC(=O)N1CCN(C(=O)CSc2nnc(COc3ccc(Cl)cc3)o2)CC1 | -20.5 |
| CC(C)N1C(=O)CCC1C(=O)N1CCN(c2ccccn2)CC1 (stereo unspecified) | 9.8 |
| COc1ccc(N2C(=O)CCC(C(=O)c3ccccc3)=C2C)cc1 | -2.2 |
| CCc1nnc(NC(=O)c2ccc(S(=O)(=O)N(CC)Cc3ccccc3)cc2)o1 | 35.7 |
| CC1CN(S(=O)(=O)c2ccc(C(=O)Nc3nnc(-c4ccc5c(c4)CCCC5)o3)cc2)CC(C)O1 (stereo unspecified) | 41.7 |
| Cc1cc(C)nc(NS(=O)(=O)c2ccc(NC(=O)CCCN3C(=O)c4ccccc4C3=O)cc2)n1 | 1.9 |
